These data points were gathered from ChEMBL document CHEMBL4732217.

Tested on: Serine/threonine-protein kinase B-raf (Homo sapiens), P15056 [V600E]
Sequence (P15056 whole entry V600E): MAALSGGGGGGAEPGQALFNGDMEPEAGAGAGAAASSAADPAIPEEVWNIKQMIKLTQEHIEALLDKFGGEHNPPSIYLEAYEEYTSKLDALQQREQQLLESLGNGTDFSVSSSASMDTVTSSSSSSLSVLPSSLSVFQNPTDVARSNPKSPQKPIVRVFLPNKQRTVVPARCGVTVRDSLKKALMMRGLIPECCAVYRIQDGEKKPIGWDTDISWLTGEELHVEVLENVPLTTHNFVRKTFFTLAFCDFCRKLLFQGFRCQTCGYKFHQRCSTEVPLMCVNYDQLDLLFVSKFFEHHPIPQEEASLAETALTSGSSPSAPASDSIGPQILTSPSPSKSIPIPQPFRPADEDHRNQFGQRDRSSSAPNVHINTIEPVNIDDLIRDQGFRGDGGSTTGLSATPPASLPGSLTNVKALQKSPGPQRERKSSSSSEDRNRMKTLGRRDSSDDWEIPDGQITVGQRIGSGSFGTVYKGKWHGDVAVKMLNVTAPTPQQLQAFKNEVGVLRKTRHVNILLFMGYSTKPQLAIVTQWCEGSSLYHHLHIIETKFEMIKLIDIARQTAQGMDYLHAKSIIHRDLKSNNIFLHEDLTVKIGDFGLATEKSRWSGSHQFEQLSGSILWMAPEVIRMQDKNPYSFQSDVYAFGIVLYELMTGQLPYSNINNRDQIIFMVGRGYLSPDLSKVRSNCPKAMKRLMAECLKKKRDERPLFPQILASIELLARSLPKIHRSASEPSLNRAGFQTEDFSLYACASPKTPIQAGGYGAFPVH
ASSAY_TEXT: Inhibition of BRAF V600E mutant (unknown origin) at 10 uM using Ser/Thr 03 as substrate after 1 hr in presence of ATP by Z'-LYTE assay relative to control

[
  {
    "SMI": "COc1cc(-c2nc(-c3ccccc3)[nH]c2-c2ccnc(NCCCNS(=O)(=O)c3ccccc3)n2)ccc1Cl",
    "UNIT_SYMBOL": "%",
    "inhibition": 80
  },
  {
    "SMI": "O=S(=O)(NCCCNc1nccc(-c2[nH]c(-c3ccccc3)nc2-c2ccc(F)c(O)c2)n1)c1ccc(Br)cc1",
    "UNIT_SYMBOL": "%",
    "inhibition": 100
  },
  {
    "SMI": "O=S(=O)(NCCCNc1nccc(-c2[nH]c(-c3ccccc3)nc2-c2ccc(Cl)c(O)c2)n1)c1ccc(Cl)cc1",
    "UNIT_SYMBOL": "%",
    "inhibition": 99.7
  },
  {
    "SMI": "O=S(=O)(NCCCNc1nccc(-c2[nH]c(-c3ccccc3)nc2-c2ccc(Cl)c(O)c2)n1)c1cccc2ccccc12",
    "UNIT_SYMBOL": "%",
    "inhibition": 96.2
  },
  {
    "SMI": "O=S(=O)(NCCCNc1nccc(-c2[nH]c(-c3ccccc3)nc2-c2ccc(Cl)c(O)c2)n1)c1cccc(F)c1",
    "UNIT_SYMBOL": "%",
    "inhibition": 101
  },
  {
    "SMI": "COc1ccc(S(=O)(=O)NCCCNc2nccc(-c3[nH]c(-c4ccccc4)nc3-c3ccc(F)c(OC)c3)n2)cc1",
    "UNIT_SYMBOL": "%",
    "inhibition": 89.1
  },
  {
    "SMI": "COc1cc(-c2nc(-c3ccccc3)[nH]c2-c2ccnc(NCCCNS(=O)(=O)c3ccc(Br)cc3)n2)ccc1Cl",
    "UNIT_SYMBOL": "%",
    "inhibition": 88.3
  },
  {
    "SMI": "COc1cc(-c2nc(-c3ccccc3)[nH]c2-c2ccnc(NCCCNS(=O)(=O)c3cccc4ccccc34)n2)ccc1F",
    "UNIT_SYMBOL": "%",
    "inhibition": 81
  },
  {
    "SMI": "COc1cc(-c2nc(-c3ccccc3)[nH]c2-c2ccnc(NCCCNS(=O)(=O)c3ccccc3)n2)ccc1F",
    "UNIT_SYMBOL": "%",
    "inhibition": 77.3
  },
  {
    "SMI": "COc1cc(-c2nc(-c3ccccc3)[nH]c2-c2ccnc(NCCCNS(=O)(=O)c3cccc(F)c3)n2)ccc1Cl",
    "UNIT_SYMBOL": "%",
    "inhibition": 84.9
  },
  {
    "SMI": "COc1ccc(S(=O)(=O)NCCCNc2nccc(-c3[nH]c(-c4ccccc4)nc3-c3ccc(Cl)c(OC)c3)n2)cc1",
    "UNIT_SYMBOL": "%",
    "inhibition": 91.1
  },
  {
    "SMI": "O=S(=O)(NCCCNc1nccc(-c2[nH]c(-c3ccccc3)nc2-c2ccc(F)c(O)c2)n1)c1ccc(O)cc1",
    "UNIT_SYMBOL": "%",
    "inhibition": 101
  },
  {
    "SMI": "COc1cc(-c2nc(-c3ccccc3)[nH]c2-c2ccnc(NCCCNS(=O)(=O)c3ccc(C)cc3)n2)ccc1F",
    "UNIT_SYMBOL": "%",
    "inhibition": 82.4
  }
]
